Experiment: Metabolic stability of compound in rat liver microsomes assessed as compound remaining at 40 mins
Assay type: ADME, Microsome
Conditions: read-out: Stability

{"columns": ["compound", "remaining at 40 min"],
 "data": [
  ["C[C@@H]1CCCN1CCCOc1ccc(-c2ccc(=O)[nH]n2)cc1.Cl [IRDABISANT HYDROCHLORIDE]", "> 98%"]
]}

###

Experiment: Metabolic stability of compound in human liver microsomes assessed as compound remaining at 40 mins
Format: ADME, Microsome
Details: read-out: Stability

{"columns": ["compound", "remaining at 40 min"],
 "data": [
  ["C[C@@H]1CCCN1CCCOc1ccc(-c2ccc(=O)[nH]n2)cc1.Cl [IRDABISANT HYDROCHLORIDE]", "> 98%"]
]}
